biological target: PDGF-BB (Homo sapiens, UniProt P01127 P01127:82-190); assay: SPR; PBS, 0.05% Tween 20; conditions: tags: R&D Systems; amine-coupled to SPR chip; chain copies: 2 (inferred, homodimer); three-stem junction with 10-nt 5' tail
Sequence (P01127 82-190, one chain of several): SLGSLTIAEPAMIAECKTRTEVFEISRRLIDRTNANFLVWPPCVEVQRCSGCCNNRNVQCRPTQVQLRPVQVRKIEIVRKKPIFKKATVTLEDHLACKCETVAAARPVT
Measured Metric: pKd
Numbers only, as −log10 of the molar value.

Quickly give me recorded pKd for GCGATACTCCACAGGCTACGGCACGTAGAGCATCACCATGATCCTG (ssDNA, 5'-Acrydite) [anti-PDGF-BB aptamer (higher affinity, 46-nt)]
7.60
